system_name: T1, orthogonal hCD122 receptor (hoRb), hCD122 with H133D and Y134F (human, UniProt P14784 27-550); further: reference of the scale not given here
T1 sequence: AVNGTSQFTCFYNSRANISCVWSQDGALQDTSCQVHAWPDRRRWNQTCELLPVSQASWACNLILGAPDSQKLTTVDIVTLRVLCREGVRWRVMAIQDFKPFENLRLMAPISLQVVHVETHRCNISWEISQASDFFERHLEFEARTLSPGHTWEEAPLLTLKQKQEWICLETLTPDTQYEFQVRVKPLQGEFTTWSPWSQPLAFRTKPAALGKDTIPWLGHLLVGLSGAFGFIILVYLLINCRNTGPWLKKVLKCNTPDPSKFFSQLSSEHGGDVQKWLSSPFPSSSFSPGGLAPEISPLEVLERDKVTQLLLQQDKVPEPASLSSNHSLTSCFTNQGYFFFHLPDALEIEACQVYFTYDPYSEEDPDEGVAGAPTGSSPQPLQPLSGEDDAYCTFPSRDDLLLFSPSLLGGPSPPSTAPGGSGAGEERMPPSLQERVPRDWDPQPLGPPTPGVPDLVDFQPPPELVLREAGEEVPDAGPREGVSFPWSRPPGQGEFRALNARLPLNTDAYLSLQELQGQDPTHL
test_protocol: cell-based or functional assay
observed_property: Relative Proliferation Fold Change NKL 1:50
Write your answer as a measured quantity: the number, then the unit.

// below: answered binders
>  <binder>
R81Y, SQVLKA (ligand) APTSSSTKKTQLQLSQLLVLLKAILNGINNYKNPKLTRMLTFKFYMPKKATELKHLQCLEEELKPLEEVLNLAQSKNFHLYPRDLISNINVIVLELKGSETTFMCEYADETATIVEFLNRWITFCQSIISTLT

>  <val>
3.43 fold

$$$$
>  <binder>
T3N, SQVLKA (ligand) APNSSSTKKTQLQLSQLLVLLKAILNGINNYKNPKLTRMLTFKFYMPKKATELKHLQCLEEELKPLEEVLNLAQSKNFHLRPRDLISNINVIVLELKGSETTFMCEYADETATIVEFLNRWITFCQSIISTLT

>  <val>
1.77 fold

$$$$
>  <binder>
ΔR81, SQVLKA (ligand) APTSSSTKKTQLQLSQLLVLLKAILNGINNYKNPKLTRMLTFKFYMPKKATELKHLQCLEEELKPLEEVLNLAQSKNFHLPRDLISNINVIVLELKGSETTFMCEYADETATIVEFLNRWITFCQSIISTLT

>  <val>
2.1 fold

$$$$

From here, focus on the item given below.
What value of measured Relative Proliferation Fold Change NKL 1:50 is listed for ΔL14, SQVLKA (ligand) APTSSSTKKTQLQSQLLVLLKAILNGINNYKNPKLTRMLTFKFYMPKKATELKHLQCLEEELKPLEEVLNLAQSKNFHLRPRDLISNINVIVLELKGSETTFMCEYADETATIVEFLNRWITFCQSIISTLT ?
0.86 fold
